# normalized growth annotations
# Protocol Details: chemical genetic growth profiling, strain panel (AID 1159580);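 note: tested at 20 µM; growth read once vehicle control cultures reached saturation at 30 °C; 1 = growth at the plate median or of vehicle wells; lower values mean less growth of the strain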
# Measurement Setup: S. cerevisiae deletion strains, growth OD, locus YER133W, strain GLC7, stronger effect = lower value
The campaign covered roughly 5,500 compounds. About 2,000 (36%) were called active. About 18% were inconclusive and are not listed. The list shows a part of the results.
Provide a numeric answer; units are not to be included.

Compound: Cc1ccc2nc3c(nc2c1)-c1ccccc1C3=O
normalized growth: 0.339
//
Compound: N/C(=N/OCc1c(F)cccc1Cl)c1ccc(Cl)cc1
normalized growth: 0.912
//
Compound: CC(C)c1cccc(C(C)C)c1OC(=O)NC(=O)c1c(Cl)cccc1Cl
normalized growth: 0.983
//
Compound: Cc1cc2nc3c(Cl)c(O)c4ccccc4c3nc2cc1C
normalized growth: 0.87
//
Compound: S=C(NCCc1csc2ccccc12)Nc1ccc(Cl)cc1
normalized growth: 0.816
//
Compound: COc1ccc(OC)c2nc3c(nc12)C(=O)c1ccccc1-3
normalized growth: 0.988
//
Compound: O=C(Nc1ccc(F)cc1)c1cc(Br)ccc1O
normalized growth: 0.908
//
Compound: NNC(=O)c1oc2nc(-c3ccccc3)cc(-c3ccccc3)c2c1N
normalized growth: 0.93
//
Compound: O=C(Nc1cc(Cl)cc(Cl)c1)c1cc(Cl)ccc1O
normalized growth: 0.74
//
Compound: O=[N+]([O-])c1ccc(Sc2ccccc2)cc1O
normalized growth: 0.831

Query string: Query: normalized growth; subject: CCOC(=O)c1cnc(-c2ccccn2)[nH]c1=O
Result string: 0.856

Query string: Request: C=CCC1C(=O)N(S(=O)(=O)c2ccc(Cl)cc2)N=C1CCC (configuration not stated)
Result string: 0.986

###

# Protocol Details: chemical genetic growth profiling, strain panel (AID 1159580);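 note: tested at 20 µM; growth read once vehicle control cultures reached saturation at 30 °C; 1 = growth at the plate median or of vehicle wells; lower values mean less growth of the strain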
# Measurement Setup: S. cerevisiae deletion strains, growth OD, locus YOL012C, strain htz1
The whole screen tested about 5,500 compounds, of which about 2,000 (36%) were called active. About 18% were inconclusive and are not listed. Some of the results follow.
Outcome Measure: normalized growth
Provide a numeric answer; units are not to be included.

Check out these entries, answers already filled in.
Compound: OC[C@H]1O[C@@H](Oc2ccc(O)cc2)[C@H](O)[C@@H](O)[C@@H]1O
normalized growth: 0.901
--
Compound: O=C(/C=C/c1ccc(O)cc1)c1ccc(O)cc1O
normalized growth: 1.77

Query string: Query: normalized growth; subject: CCCCCC/C=C\CCCCCCCc1cccc(O)c1C(=O)O
Result string: 0.359

Query string: Request: O=C(/C=C/c1ccccc1)c1ccc(O[C@@H]2O[C@H](CO)[C@@H](O)[C@H](O)[C@H]2O)cc1O
Result string: 1.32

Query string: Request: CCCC(=O)Nc1ccc(OCC(O)CNC(C)C)c(C(C)=O)c1 (stereo not given)
Result string: 0.744

###

# Protocol Details: chemical genetic growth profiling, strain panel (AID 1159580);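 note: tested at 20 µM; growth read once vehicle control cultures reached saturation at 30 °C; 1 = growth at the plate median or of vehicle wells; lower values mean less growth of the strain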
# Measurement Setup: S. cerevisiae deletion strains, growth OD, locus YGL167C, strain pmr1, stronger effect = lower value
The whole screen tested about 5,500 compounds, of which about 2,000 (36%) were called active. Another 18% or so got no clear call; they are omitted. The list shows a part of the results.
Outcome Measure: normalized growth
Provide a numeric answer; units are not to be included.

Compound: NS(=O)(=O)c1cc2c(cc1Cl)NCNS2(=O)=O
normalized growth: 1
//
Compound: CC(=O)NC1C(O)OC(COS(=O)(=O)O)C(OC2OC(C(=O)O)C(OC3OC(CO)C(OC4OC(C(=O)O)C(O)C(O)C4OS(=O)(=O)O)C(OS(=O)(=O)O)C3NS(=O)(=O)O)C(O)C2OS(=O)(=O)O)C1O (configuration not stated)
normalized growth: 0.97
//
Compound: Cn1cnc2c1c(=O)[nH]c(=O)n2C
normalized growth: 0.976
//
Compound: CN1CCC[C@H]1c1cccnc1
normalized growth: 1.04
//
Compound: C[C@H]1C(=O)CCC2[C@]3(C)CC[C@@]4(C)C5CC(C)(C)CC[C@]5(C)CC[C@]4(C)C3CC[C@@]21C (some centres not stated)
normalized growth: 1
//
Compound: COc1cc(O)ccc1C(C)=O
normalized growth: 1.02
//
Compound: CC(C)[C@@H]1CC[C@@H](C)C[C@H]1OC(=O)c1ccccc1
normalized growth: 1
//
Compound: Cn1c(=O)[nH]c2nc[nH]c2c1=O
normalized growth: 1
//
Compound: O=C(/C=C/c1ccccc1)c1ccc(O)cc1O
normalized growth: 0.0759
//
Compound: COc1ccc(NS(=O)(=O)c2ccc(N)cc2)nn1
normalized growth: 0.999

Query string: Query: normalized growth; subject: Cn1c(=O)c2c(ncn2C)n(C)c1=O
Result string: 0.945

Query string: Request: COc1ccc([C@@H](C)C(=O)c2ccc(O)cc2O)cc1
Result string: 0.96

Query string: Request: Cn1c(=O)[nH]c2ncn(C)c2c1=O
Result string: 0.982

Query string: Request: O=C(/C=C/c1ccccc1)c1ccc(O[C@@H]2O[C@H](CO)[C@@H](O)[C@H](O)[C@H]2O)cc1O
Result string: 0.947

Query string: Request: CCCCCC/C=C\CCCCCCCc1cccc(O)c1C(=O)O
Result string: 0.966

Query string: Request: O=C(O)[C@H]1/C(=C/CO)O[C@@H]2CC(=O)N21
Result string: 0.986

Query string: Request: CC12CCC(OC(=O)c3ccccc3)CC1CCc1ccccc12 (configuration not stated)
Result string: 0.981

Query string: Request: COc1cc([C@@H]2c3cc4c(cc3[C@H](O)[C@H]3COC(=O)[C@H]23)OCO4)cc(OC)c1OC
Result string: 1.01

Query string: Request: CCC[C@@H]1C[C@@H](C(=O)N[C@H]([C@H]2O[C@H](SC)[C@H](O)[C@@H](O)[C@H]2O)[C@H](C)O)N(C)C1
Result string: 0.959

These measurements were taken from PubChem BioAssay AID1159580.
